test: AUC in human at 25 to 50 mg, po QD after 24 hrs; format: ADME, organism-based; settings: in vivo
READOUT_NAME: AUC at 24 h

Name the recorded AUC at 24 h for COc1cc(C)c(/C=C/C(C)=C/C=C/C(C)=C/C(=O)O)c(C)c1C .
6.13 µM·h

====

experiment: Drug concentration at steady state in human at 0.5 mg, po QD after 24 hrs; type: ADME, organism-based; conditions: in vivo, read-out: Css
READOUT_NAME: concentration at 24 h (nM)
Give the value in nM but do not write nM after it.

Name the recorded concentration at 24 h for C[C@]12C=CC(=O)N[C@@H]1CC[C@@H]1[C@@H]2CC[C@]2(C)[C@@H](C(=O)Nc3cc(C(F)(F)F)ccc3C(F)(F)F)CC[C@@H]12 [DUTASTERIDE] .
3
